Cited source for all entries: paper PMC5540273

System: CSNK1G2
Details: concentration: 1 μM, replicates: in singlicate; n = 1;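 further: KINOMEscan kinase panel screen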
Listed compounds paired with reported %Inh
State just the number; it will be interpreted in %.

Reference set (3 entries):
structure_as_smiles: O=C(NCCNc1ccnc(Nc2ccc(F)cc2)n1)Nc1ccc2c(c1)OCO2
measure_name: %Inh
recorded_value: 0

structure_as_smiles: Fc1cccc(CSc2nnc(-c3ccc4c(c3)CCO4)o2)c1
measure_name: %Inh
recorded_value: 10

structure_as_smiles: COc1cc2nccc(Nc3ccc(OCc4ccc(NC(C)=O)cc4)cc3)c2cc1OC.Cl
measure_name: %Inh
recorded_value: 0

Attention now turns to another entry.
## Task Quick one: %Inh of `O=C(NCc1cccs1)c1cc(C(=O)c2c(Cl)cccc2Cl)c[nH]1` ?
## Result 0

====

Test system: JAK1(JH2domain-pseudokinase)
Conditions: concentration: 1 μM, replicates: in singlicate; n = 1
Listed compounds paired with reported %Inh
State just the number; it will be interpreted in %.

compound: O=C(NCc1cccs1)c1cc(C(=O)c2c(Cl)cccc2Cl)c[nH]1
test_system: JAK1(JH2domain-pseudokinase)
unit_abbreviation: %
%Inh: 5
//
compound: COc1cccc(C2=C(N(C)c3ccccc3)C(=O)NC2=O)c1
test_system: JAK1(JH2domain-pseudokinase)
unit_abbreviation: %
%Inh: 0
//
compound: COC(=O)c1c(-c2ccccc2)c2cc(C)ccc2c(=O)n1Cc1ccccc1
test_system: JAK1(JH2domain-pseudokinase)
unit_abbreviation: %
%Inh: 0

## Task Quick one: %Inh of `COc1ccc(-c2cc3c(C)nc(N)nc3n([C@H]3CC[C@H](O)CC3)c2=O)cn1` ?
## Result 0

## Task Quick one: %Inh of `CCS(=O)(=O)c1ccc(OC)c(Nc2ncc(-c3ccc(F)cc3)o2)c1.Cl` ?
## Result 0

## Task Quick one: %Inh of `C[C@@H]1CC[C@H](C(=O)NC2CCCCC2)CN1c1cc(-c2ccc3c(N)n[nH]c3c2)nc(N)n1` ?
## Result 11

## Task Quick one: %Inh of `CC(C)(C)c1ccc(C(=O)Nc2cn3cc(-c4ccccc4)ccc3n2)cc1` ?
## Result 42

## Task Quick one: %Inh of `COc1cccc(C2=C(Nc3cccc(C(=O)O)c3)C(=O)NC2=O)c1` ?
## Result 2

## Task Quick one: %Inh of COc1ccc(Nc2nccc(N3CCC(NS(=O)(=O)c4ccc(NC(C)=O)cc4)C3)n2)cc1 (stereo not shown) ?
## Result 0

====

Test system: ABL1-phosphorylated
Details: concentration: 1 μM, replicates: in singlicate; n = 1
Listed molecules paired with reported %Inh
Returns: string containing the number followed by the unit.

molecule: Cc1ccc(-c2ccc3c(ccc4sc5c(c43)NC[C@@H](C)N=C5N(C)C)n2)cn1
%Inh: 0%
//
molecule: Nc1ncnc2c1ncn2-c1ccc(Cl)cc1
%Inh: 0%

## Task Quick one: %Inh of COc1cc(Nc2nccc(N3CCC(NC(=O)C4COc5ccccc5O4)C3)n2)cc(OC)c1OC (stereo not shown) ?
## Result 0%

## Task Quick one: %Inh of `Cc1cccc(-c2cc(-c3c[nH]nc3-c3ccccn3)ccn2)c1` ?
## Result 29%

## Task Quick one: %Inh of `COC(=O)c1c(-c2ccccc2)c2cc(Br)ccc2c(=O)n1Cc1ccc(S(C)(=O)=O)cc1` ?
## Result 9%

## Task Quick one: %Inh of `Nc1ncnc2c1ncn2-c1cccc2ccccc12` ?
## Result 26%

## Task Quick one: %Inh of `CCC(=O)c1c(-c2ccccc2)c2cc(Cl)ccc2c(=O)n1Cc1ccc(C(=O)O)cc1` ?
## Result 0%

## Task Quick one: %Inh of COc1ccc(CNC(=O)NC2CCN(c3ccnc(Nc4ccc(F)cc4)n3)C2)cc1 (stereo not shown) ?
## Result 0%

## Task Quick one: %Inh of `CCC(=O)c1c(-c2ccccc2)c2cc(Cl)ccc2c(=O)n1Cc1cc(S(C)(=O)=O)n(CC(F)F)n1` ?
## Result 2%

## Task Quick one: %Inh of `CCc1ccc(-c2ccc3c(c2)-c2nn(C)cc2S(=O)(=O)N3C)cc1` ?
## Result 0%

## Task Quick one: %Inh of `CCn1c(-c2ccoc2)nc2cnccc21` ?
## Result 17%

## Task Quick one: %Inh of `COc1cc2nccc(Nc3cccc(Oc4ccccc4)c3)c2cc1OC.Cl` ?
## Result 0%

## Task Quick one: %Inh of `O=C1NC(=O)C(c2ccccc2)=C1Nc1cccc(O)c1` ?
## Result 5%

## Task Quick one: %Inh of `CC(C)(C)c1ccc(C(=O)Nc2cn3cc(-c4ccccc4)ccc3n2)cc1` ?
## Result 55%

## Task Quick one: %Inh of `Cc1ccc(Oc2ccc(Nc3ncnc4cc[nH]c34)cc2C)cn1` ?
## Result 0%

## Task Quick one: %Inh of `Nc1nccc2scc(-c3ccc4c(c3)CCN4C(=O)Cc3ccccc3)c12` ?
## Result 0%
